- test_system: MRP1 (Homo sapiens, UniProt P33527)
- Sequence (P33527 whole entry): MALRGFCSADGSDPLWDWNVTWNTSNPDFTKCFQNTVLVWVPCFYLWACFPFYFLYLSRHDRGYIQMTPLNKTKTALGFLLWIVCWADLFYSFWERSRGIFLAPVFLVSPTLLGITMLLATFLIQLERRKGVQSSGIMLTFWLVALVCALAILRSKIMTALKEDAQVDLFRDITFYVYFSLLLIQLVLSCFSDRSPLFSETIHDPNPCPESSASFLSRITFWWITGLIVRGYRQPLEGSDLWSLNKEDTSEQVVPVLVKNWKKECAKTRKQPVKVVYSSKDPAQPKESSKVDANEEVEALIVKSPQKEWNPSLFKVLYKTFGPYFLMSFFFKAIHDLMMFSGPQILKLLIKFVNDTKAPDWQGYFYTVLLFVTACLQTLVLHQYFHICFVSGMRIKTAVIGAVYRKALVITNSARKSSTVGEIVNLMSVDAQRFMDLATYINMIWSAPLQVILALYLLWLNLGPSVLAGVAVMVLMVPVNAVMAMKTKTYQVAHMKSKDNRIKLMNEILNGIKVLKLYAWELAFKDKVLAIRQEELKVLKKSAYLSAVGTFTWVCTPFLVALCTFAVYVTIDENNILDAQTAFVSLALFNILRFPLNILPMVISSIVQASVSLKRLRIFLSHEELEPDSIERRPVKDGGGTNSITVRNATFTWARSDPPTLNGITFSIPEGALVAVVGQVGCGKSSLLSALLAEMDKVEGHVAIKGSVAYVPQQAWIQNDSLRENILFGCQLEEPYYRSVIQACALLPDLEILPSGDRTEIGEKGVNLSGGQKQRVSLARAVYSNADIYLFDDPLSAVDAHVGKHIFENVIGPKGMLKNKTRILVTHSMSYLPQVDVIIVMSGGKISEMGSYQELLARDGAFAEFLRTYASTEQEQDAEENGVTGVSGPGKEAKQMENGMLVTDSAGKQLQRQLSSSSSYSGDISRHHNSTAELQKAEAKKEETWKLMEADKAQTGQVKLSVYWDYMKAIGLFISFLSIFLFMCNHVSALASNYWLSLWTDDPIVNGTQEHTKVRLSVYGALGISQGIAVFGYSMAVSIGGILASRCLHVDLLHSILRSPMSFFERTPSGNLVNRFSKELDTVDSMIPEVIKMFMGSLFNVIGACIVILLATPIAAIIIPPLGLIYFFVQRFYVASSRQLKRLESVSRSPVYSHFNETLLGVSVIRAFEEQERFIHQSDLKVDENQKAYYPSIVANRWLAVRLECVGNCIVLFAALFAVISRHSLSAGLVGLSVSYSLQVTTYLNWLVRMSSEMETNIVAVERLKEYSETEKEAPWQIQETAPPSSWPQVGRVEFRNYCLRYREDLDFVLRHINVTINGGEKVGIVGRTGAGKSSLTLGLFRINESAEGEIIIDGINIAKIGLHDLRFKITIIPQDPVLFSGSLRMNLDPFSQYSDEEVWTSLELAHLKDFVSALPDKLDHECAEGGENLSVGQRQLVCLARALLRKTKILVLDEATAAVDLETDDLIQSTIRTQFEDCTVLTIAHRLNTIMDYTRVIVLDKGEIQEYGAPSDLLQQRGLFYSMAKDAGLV
- protocol_description: Inhibition of Homo sapiens (human) MRP1 expressed in Sf9 cell membranes assessed as decrease in N-ethyl-maleimide-glutathione-induced inorganic phosphate production at 10 uM by spectrophotometric analysis in presence of glutathione relative to control
- measurement_conditions: Sf9 cell membranes expressing human MRP1, probe N-ethyl-maleimide-glutathione
measured_endpoint: inhibition at 10 µM (%)
Return type: number; implicit unit %.

## Task Return inhibition at 10 µM measured with MRP1 (Homo sapiens, UniProt P33527) given this molecule: "CCOC(=O)C1=C(C)NC(C)=C(C(=O)OCC)C1c1ccc(Cl)cc1"
## Result 47

---

- test_system: Multidrug resistance-associated protein 1 (Homo sapiens, UniProt P33527)
- Sequence (P33527 whole entry): as above
- protocol_description: Inhibition of Homo sapiens (human) MRP1 expressed in Sf9 cell membranes assessed as decrease in N-ethyl-maleimide-glutathione-induced inorganic phosphate production at 1 to 1000 uM by spectrophotometric analysis in presence of glutathione
measured_endpoint: inhibition (INH)

Solved entries (count: 5):
CCCCC1C(C(=O)OCC)=C(C)NC(C)=C1C(=O)OCC
Not Active
CCOC(=O)C1=C(C)NC(C)=C(C(=O)OCC)C1c1ccc(OC)cc1
Not Active
CCCC1C(C(=O)OCC)=C(C)NC(C)=C1C(=O)OCC
Not Active
CCOC(=O)C1=C(C)NC(C)=C(C(=O)OCC)C1c1cccc([N+](=O)[O-])c1
Not Active
COC(=O)C1=C(C)NC(C)=C(C(=O)OC)C1c1ccc(Cl)cc1
Not Active

## Task What value of measured inhibition (INH) is listed for "COC(=O)C1=C(C)NC(C)=C(C(=O)OC)C1c1ccc(C)cc1" ?
## Result Not Active

---

- test_system: Multidrug resistance-associated protein 1 (Homo sapiens)
- protocol_description: Inhibition of Homo sapiens (human) MRP1 expressed in Sf9 cell membranes assessed as decrease in N-ethyl-maleimide-glutathione-induced inorganic phosphate production by spectrophotometric analysis in presence of glutathione
measured_endpoint: IC50

## Task What value of measured IC50 is listed for "CCOC(=O)C1=C(C)NC(C)=C(C(=O)OCC)C1c1ccc(Cl)cc1" ?
## Result 16 µM

meta.source: ChEMBL document CHEMBL3046579
